- Test system: Human immunodeficiency virus 1
- TEST SUMMARY: Effect upon disintegration catalyzed by the deletion mutant
- Format: functional
- STATED CONDITIONS: Human immunodeficiency virus 1
READOUT NAME: IC50 (nM)

INSERT INTO measurements (molecule_smiles, assay_target, readout_name, unit_symbol, endpoint_result) VALUES
  ('O=C([O-])c1ccc2ccc(/C=C/c3ccc(O)c(O)c3)nc2c1O.[Na+]', 'Human immunodeficiency virus 1', 'IC50', 'nM', 700),
  ('O=C(O)c1ccc2ccc(/C=C/c3ccc(O)cc3O)nc2c1O', 'Human immunodeficiency virus 1', 'IC50', 'nM', 2500),
  ('N#Cc1ccc2ccc(/C=C/c3ccc(O)c(O)c3)nc2c1O', 'Human immunodeficiency virus 1', 'IC50', 'nM', 3600),
  ('O=C(O)c1ccc2ccc(/C=C/c3cc(O)c(O)c(O)c3)nc2c1O', 'Human immunodeficiency virus 1', 'IC50', 'nM', 240),
  ('O=C(O)c1cc(/C=C/c2ccc3ccc(C(=O)O)c(O)c3n2)ccc1O', 'Human immunodeficiency virus 1', 'IC50', 'nM', 600),
  ('Oc1ccc(/C=C/c2ccc3cccc(O)c3n2)cc1O', 'Human immunodeficiency virus 1', 'IC50', 'nM', 2500);

* * *

# maps each entry to its pIC50
- ASSAY TARGET: Human immunodeficiency virus type 1 integrase (Human immunodeficiency virus 1)
- TEST SUMMARY: HIV integrase inhibitory potency was evaluated as IC50 on 3' processing of target DNA.
pIC50: −log10 of the molar value.
READOUT NAME: pIC50

INSERT INTO measurements (molecule_smiles, readout_name, limit_sign, endpoint_result) VALUES
  ('O=[N+]([O-])c1cccc2ccc(/C=C/c3ccc(O)c(O)c3)nc12', 'pIC50', '<', 4.00),
  ('N#Cc1ccc2ccc(/C=C/c3ccc(O)c(O)c3)nc2c1O', 'pIC50', '=', 5.52),
  ('CC(=O)Oc1ccc(/C=C/c2ccc3cccc(OC(C)=O)c3n2)cc1OC(C)=O', 'pIC50', '<', 4.00),
  ('COc1ccc(/C=C/C(=O)Oc2cccc3ccc(C)nc23)cc1OC', 'pIC50', '<', 4.00),
  ('O=C(O)c1ccc2ccc(/C=C/c3ccc(O)cc3O)nc2c1O', 'pIC50', '=', 5.43),
  ('CC(=O)Oc1cccc2ccc(/C=C/c3ccccc3)nc12', 'pIC50', '<', 4.00),
  ('O=C(O)c1cc(/C=C/c2ccc3ccc(C(=O)O)c(O)c3n2)ccc1O', 'pIC50', '=', 5.57),
  ('Nc1cccc2ccc(/C=C/c3ccc(O)c(O)c3)nc12', 'pIC50', '<', 4.00),
  ('Oc1cccc2ccc(/C=C/c3ccc4cccc(O)c4n3)nc12', 'pIC50', '<', 4.00),
  ('Cc1ccc2ccc(C(=O)O)c(O)c2n1', 'pIC50', '<', 4.00),
  ('O=C(O)c1ccc2ccc(/C=C/c3ccc(O)c(O)c3)nc2c1O', 'pIC50', '=', 5.62),
  ('Oc1ccc(/C=C/c2ccc3ccc(/C=C/c4ccc(O)c(O)c4)c(O)c3n2)cc1O', 'pIC50', '=', 5.66),
  ('Oc1ccc(/C=C/c2ccc3cccc(O)c3n2)cc1O', 'pIC50', '=', 5.13),
  ('Cc1ccc2cccc(OC(=O)/C=C/c3ccc(O)c(O)c3)c2n1', 'pIC50', '<', 4.00),
  ('Oc1cccc2ccc(/C=C/c3ccccc3)nc12', 'pIC50', '<', 4.00),
  ('O=C([O-])c1ccc2ccc(/C=C/c3ccc(O)c(O)c3)nc2c1O.[Na+]', 'pIC50', '=', 6.10),
  ('Oc1ccc(/C=C/c2ccc3ccccc3n2)cc1O', 'pIC50', '<', 4.00);

* * *

# maps each entry to its pIC50
- ASSAY TARGET: Human immunodeficiency virus type 1 integrase (Human immunodeficiency virus 1, UniProt Q7ZJM1)
- Sequence (Q7ZJM1 whole entry): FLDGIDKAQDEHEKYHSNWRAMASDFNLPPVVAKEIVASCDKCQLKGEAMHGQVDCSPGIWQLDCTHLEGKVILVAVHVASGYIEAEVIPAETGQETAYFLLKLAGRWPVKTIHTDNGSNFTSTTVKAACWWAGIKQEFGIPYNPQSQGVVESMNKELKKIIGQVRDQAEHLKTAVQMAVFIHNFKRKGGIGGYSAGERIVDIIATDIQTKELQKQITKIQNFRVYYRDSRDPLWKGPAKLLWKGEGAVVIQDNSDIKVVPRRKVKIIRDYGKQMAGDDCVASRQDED
- TEST SUMMARY: In vitro anti-HIV integrase activity against integration (strand transfer) of target plasmid.
pIC50: −log10 of the molar value.
READOUT NAME: pIC50

INSERT INTO measurements (compound, limit_sign, endpoint_result) VALUES
  ('Cc1ccc2cccc(O)c2n1 [8-HYDROXY QUINALDINE]', '<', 4.00),
  ('Oc1cccc2ccc(/C=C/c3ccccc3)nc12', '<', 4.00),
  ('Nc1cccc2ccc(/C=C/c3ccc(O)c(O)c3)nc12', '<', 4.00),
  ('Cc1ccc2cccc(OC(=O)/C=C/c3ccc(O)c(O)c3)c2n1', '<', 4.00),
  ('O=C(O)c1ccc2ccc(/C=C/c3cc(O)c(O)c(O)c3)nc2c1O', '=', 6.40),
  ('CC(=O)Oc1cccc2ccc(/C=C/c3ccccc3)nc12', '<', 4.00),
  ('Oc1ccc(/C=C/c2ccc3cccc(O)c3n2)cc1O', '=', 5.62),
  ('O=C(O)c1ccc2ccc(/C=C/c3ccc(O)cc3O)nc2c1O', '=', 5.55),
  ('CC(=O)Oc1ccc(/C=C/c2ccc3cccc(OC(C)=O)c3n2)cc1OC(C)=O', '<', 4.00),
  ('Oc1ccc(/C=C/c2ccc3ccc(/C=C/c4ccc(O)c(O)c4)c(O)c3n2)cc1O', '=', 5.47),
  ('O=C(O)c1cc(/C=C/c2ccc3ccc(C(=O)O)c(O)c3n2)ccc1O', '=', 6.22),
  ('Cc1ccc2ccc(C(=O)O)c(O)c2n1', '=', 3.94),
  ('O=C(O)c1ccc2ccc(/C=C/c3ccc(O)c(O)c3)nc2c1O', '=', 6.00),
  ('COc1ccc(/C=C/C(=O)Oc2cccc3ccc(C)nc23)cc1OC', '<', 4.00),
  ('O=[N+]([O-])c1cccc2ccc(/C=C/c3ccc(O)c(O)c3)nc12', '<', 4.00);

* * *

# maps each entry to its Toxicity
- Tested on: CCRF-CEM
- TEST SUMMARY: Toxicity was measured by MTT assay after 72 hours at 100 uM
- Assay type: functional, Homo sapiens
READOUT NAME: Toxicity (%)

INSERT INTO assay_data (molecule_smiles, assay_target, endpoint_result) VALUES
  ('O=C(O)c1ccc2ccc(/C=C/c3ccc(O)c(O)c3)nc2c1O', 'CCRF-CEM', 0),
  ('O=C(O)c1cc(/C=C/c2ccc3ccc(C(=O)O)c(O)c3n2)ccc1O', 'CCRF-CEM', 0),
  ('Oc1ccc(/C=C/c2ccc3cccc(O)c3n2)cc1O', 'CCRF-CEM', 99),
  ('O=C([O-])c1ccc2ccc(/C=C/c3ccc(O)c(O)c3)nc2c1O.[Na+]', 'CCRF-CEM', 0),
  ('O=C(O)c1ccc2ccc(/C=C/c3cc(O)c(O)c(O)c3)nc2c1O', 'CCRF-CEM', 100),
  ('Cc1ccc2ccc(C(=O)O)c(O)c2n1', 'CCRF-CEM', 0),
  ('O=C(O)c1ccc2ccc(/C=C/c3ccc(O)cc3O)nc2c1O', 'CCRF-CEM', 0);
